Assay: Example 39 - Cell viability (tox.) in HIV-contaminated cell lines, in vitro
Type: cell-based
Conditions: Trial 1; moi 0.4; Multi-Protein: deformed cells; read-out: Cell viability (tox.)
ENDPOINT: viability (%)
Report as a plain number; the unit % is understood.

Q. Return reported viability; argument: "O=C(O)P(=O)(O)O"
A. 100

###

Assay: Example 39 - Cell viability (tox.) in HIV-contaminated cell lines, in vitro
Assay type: cell-based
Protocol: This study was carried out at the Swedish National Bacterological Laboratory (SBL). Multi-Protein was compared to AZT and Foscarnet. All preparations were tested at dilutions from undiluted to 10^-5 (highest concentration for Multi-Protein was 5 mg/ml). […] Control: 50% infected cells. Cell toxicity and percentage of infected cells measured by immunofluorescence. Control: 50% infected cells. Cell toxicity and percentage of infected cells measured by immanofluorescence.
ENDPOINT: viability (%)
# output: bare number, implied unit %

Q. What value of viability has been reported for the following molecule? "Cc1cn([C@H]2C[C@H](N=[N+]=[N-])[C@@H](CO)O2)c(=O)[nH]c1=O"
A. 100
